Tested on: MS2 coat protein
Assay: apparent Kd, MS2 coat protein; higher = weaker binding; RNA-MaP array
Settings: designed as: ON switch for theophylline; no ligand
PROPERTY_MEASURED: apparent Kd (nM)

| SEQ | TESTED_TARGET | UNIT_STRING | OBSERVED_MEASUREMENT |
| --- | --- | --- | --- |
| GUAAGACAUGAGGAUCACCCAUGUGUCGAUACCAGCCCUGCCUCUGGCCCUUGGCAGCGACUCGCACACCUCGCACUGCACAAGU | MS2 coat protein | nM | 54.9 |
| AUAACACAUGAGGAUCACCCAUGUAAGGAUACCAGUUUCUGAUUAAACCCUUGGCAGCCUAGAGAUAGUCAUGUAAUAACGGCGA | MS2 coat protein | nM | 11.9 |
| UAGUAACAUGAGGAUCACCCAUGUCCGGAUACCAGACAUAUACCAGUCCCUUGGCAGCCGCCAGUUAAAAUCUAACACAAAAGUU | MS2 coat protein | nM | 46.2 |
| GGAGGCCUUAGGGAUACCAGCUAAGUUGAGUACAUGAGGAUCACCCAUGUGUUCCCAGAGAGCCCUUGGCAGCCCUCAUCCGUUC | MS2 coat protein | nM | 11.6 |
| GGAAAAUAUAGGGAUACCAGAUAUGGCGUUGACAUGAGGAUCACCCAUGUCUUAGCAGUGAUCCCUUGGCAGCCCACACCAUCCG | MS2 coat protein | nM | 71.6 |
| AUGGAACAUGAGGAUCACCCAUGUGAUGAUACCAGAUUAACGCUUAUCCCUUGGCAGCAUGUCCGCCCUCAACCUGUGGCGUAUU | MS2 coat protein | nM | 22.2 |
| AUUAACUGGUAAGAUACCAGAGUCGGGAUCUACAUGAGGAUCACCCAUGUUCUAAAGUCGCUCCCUUGGCAGCUUCAAUGAGUCG | MS2 coat protein | nM | 35.3 |
| GCACAACAUGAGGAUCACCCAUGUCGAGAUACCAGAACAUAUAUAUUCCCUUGGCAGCUCACACCUUUAAUGUAAAAUUCUUUGG | MS2 coat protein | nM | 12.7 |

----------
System: MS2 coat protein
Assay: apparent Kd, MS2 coat protein; higher = weaker binding; RNA-MaP array
Conditions: ligand present: flavin mononucleotide; designed as: OFF switch for flavin mononucleotide

| SEQ | UNIT_STRING | apparent Kd |
| --- | --- | --- |
| AUCGCAGAUGUAAGGAUAUUAGUGUAGCAACGGUCAAAGAAGGAACAUGAGGAUCACCCAUGUGGUAGAUAAAU | nM | 15.2 |
| AAUGGACGAGGAUAUACAUGAGGAUCACCCAUGUCACAGUGGGCUCACCGUUCGGGUAGUAGAAGGCGUUUCUA | nM | 282 |
| UCUGUGAUUCAAGGAUAUAAGUCGAGUGCUUGCUUAGAAGGUGACGAACAUGAGGAUCACCCAUGUGCUUUAUUCUUAUGCAUC | nM | 25.6 |
| CGGCGGGACUCACAUGAGGAUCACCCAUGUUUAAAGGGUCAAAAGGAUAUGAAAACAGCAAGUAAUCAGAAGGUUUACCUAGUG | nM | 15.8 |
| AUUUCAAACAUGAGGAUCACCCAUGUCAAGUUUGAGCAACUAAGAAGGUCAGAUCCAUAAGCACUGAAGGAUAUUAAGAGGUAC | nM | 22 |
| GUAACUCAGGUCAGGAUAUUCGAGUAAGGGAAAACGAAGAAGGGACAUGAGGAUCACCCAUGUAACACGACUAU | nM | 86.3 |
| UAAUUAACGUAGAAGGAAUCCCAUCCGUUGCAAUUAGGAUAUACGUUCCCUCGAACAUGAGGAUCACCCAUGUGGCAACCAUAU | nM | 13.8 |
